- ASSAYED_SYSTEM: rat brain α4β2 nAChR (Rattus norvegicus, UniProt P09483+P12390)
- Construct: from tissue; host or cells: whole rat brain membranes
- Sequence (P09483 31-630): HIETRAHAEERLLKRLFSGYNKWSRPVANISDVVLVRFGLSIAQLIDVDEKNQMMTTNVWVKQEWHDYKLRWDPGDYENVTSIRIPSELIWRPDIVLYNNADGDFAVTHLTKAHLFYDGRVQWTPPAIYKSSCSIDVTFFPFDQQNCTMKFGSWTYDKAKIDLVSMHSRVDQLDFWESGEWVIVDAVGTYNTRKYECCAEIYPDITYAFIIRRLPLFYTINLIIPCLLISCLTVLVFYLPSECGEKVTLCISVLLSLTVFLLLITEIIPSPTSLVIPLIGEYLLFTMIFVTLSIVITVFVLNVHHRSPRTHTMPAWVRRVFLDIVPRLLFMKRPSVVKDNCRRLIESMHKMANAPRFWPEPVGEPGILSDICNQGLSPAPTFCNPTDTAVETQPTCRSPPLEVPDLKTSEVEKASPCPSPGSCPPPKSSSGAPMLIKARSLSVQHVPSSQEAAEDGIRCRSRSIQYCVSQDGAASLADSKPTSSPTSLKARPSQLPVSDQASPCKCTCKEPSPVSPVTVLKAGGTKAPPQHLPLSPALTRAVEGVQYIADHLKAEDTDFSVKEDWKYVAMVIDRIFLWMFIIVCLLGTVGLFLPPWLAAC
- Sequence (P12390 25-500): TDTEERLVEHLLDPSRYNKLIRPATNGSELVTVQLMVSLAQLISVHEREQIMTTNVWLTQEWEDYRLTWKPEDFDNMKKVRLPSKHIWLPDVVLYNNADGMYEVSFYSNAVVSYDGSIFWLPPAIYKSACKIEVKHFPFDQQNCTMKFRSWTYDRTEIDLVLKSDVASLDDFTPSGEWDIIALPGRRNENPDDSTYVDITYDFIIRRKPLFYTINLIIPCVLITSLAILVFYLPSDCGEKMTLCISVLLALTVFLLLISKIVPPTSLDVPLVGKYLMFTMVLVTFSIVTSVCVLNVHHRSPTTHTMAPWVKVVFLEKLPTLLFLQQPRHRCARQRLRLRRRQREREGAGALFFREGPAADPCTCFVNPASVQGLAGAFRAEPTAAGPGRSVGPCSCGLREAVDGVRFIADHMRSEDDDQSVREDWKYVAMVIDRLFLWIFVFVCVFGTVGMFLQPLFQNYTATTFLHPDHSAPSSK
- ASSAY_REMARKS: [3H]-cytisine displacement binding, rat brain membranes
- CONDITION: displacement of [3H]-cytisine, rat brain membranes; read-out: Ki Neuronal nAChR Rat α4β
Entries annotated with measured Ki
Give the quantity in µM, number only.

{"CHEMICAL_STRING": "CNCCCCC(=O)c1cccnc1", "Ki, µM": 10}

Here is the next item to consider.
Hello, I am looking for reported Ki with rat brain α4β2 nAChR (Rattus norvegicus, UniProt P09483+P12390) for Cl.c1cncc(C2=NCCCN2)c1 . Could you help?
0.38

---

- ASSAYED_SYSTEM: human α4β2 neuronal nAChR expressed in tsA201 cells (Homo sapiens, UniProt P17787+P43681)
- Construct: expressed in transfected cells
- Sequence (P43681 29-627): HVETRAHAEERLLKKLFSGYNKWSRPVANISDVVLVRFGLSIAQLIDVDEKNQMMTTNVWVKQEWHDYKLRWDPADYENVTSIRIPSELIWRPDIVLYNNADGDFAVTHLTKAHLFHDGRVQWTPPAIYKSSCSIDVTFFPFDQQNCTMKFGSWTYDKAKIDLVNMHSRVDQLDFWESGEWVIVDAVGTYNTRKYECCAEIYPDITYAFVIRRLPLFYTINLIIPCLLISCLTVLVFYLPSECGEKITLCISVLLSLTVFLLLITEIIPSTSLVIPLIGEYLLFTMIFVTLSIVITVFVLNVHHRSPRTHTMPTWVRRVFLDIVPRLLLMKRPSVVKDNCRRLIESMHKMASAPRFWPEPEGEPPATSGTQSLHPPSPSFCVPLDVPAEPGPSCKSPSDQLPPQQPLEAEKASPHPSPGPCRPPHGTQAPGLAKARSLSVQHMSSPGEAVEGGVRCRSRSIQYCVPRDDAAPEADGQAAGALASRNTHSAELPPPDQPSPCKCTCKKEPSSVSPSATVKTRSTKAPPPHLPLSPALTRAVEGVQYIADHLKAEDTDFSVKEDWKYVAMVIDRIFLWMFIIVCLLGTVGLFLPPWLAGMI
- Sequence (P17787 26-502): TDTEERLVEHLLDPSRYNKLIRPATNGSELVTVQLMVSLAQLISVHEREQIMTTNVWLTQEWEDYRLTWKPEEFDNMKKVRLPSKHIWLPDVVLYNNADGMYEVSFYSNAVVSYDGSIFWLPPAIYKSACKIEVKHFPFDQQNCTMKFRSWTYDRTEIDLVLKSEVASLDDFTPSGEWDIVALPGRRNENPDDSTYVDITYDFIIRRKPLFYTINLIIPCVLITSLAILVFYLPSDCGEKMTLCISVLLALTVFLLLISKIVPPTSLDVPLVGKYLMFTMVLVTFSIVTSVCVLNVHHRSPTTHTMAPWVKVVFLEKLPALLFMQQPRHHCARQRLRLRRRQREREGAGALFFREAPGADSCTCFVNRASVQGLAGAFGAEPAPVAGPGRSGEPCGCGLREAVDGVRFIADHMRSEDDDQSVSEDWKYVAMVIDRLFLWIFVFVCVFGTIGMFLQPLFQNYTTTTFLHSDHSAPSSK
- ASSAY_REMARKS: Activation of human α4β2 neuronal nAChR, membrane depolarization FlexStation assay
- Type: cell-based
pEC50: −log10 of the molar value.
Entries annotated with measured pEC50

Example entries begin here.
{"CHEMICAL_STRING": "CNCCCCC(=O)c1cccnc1", "RESULT": "< 2.70"}
{"CHEMICAL_STRING": "Cl.c1cncc(C2=NCCCN2)c1", "RESULT": 5.44}

Given the compound c1ccc(-c2cccnc2)nc1 , what is its reported pEC50?
< 3.00

---

Entries annotated with measured IC50
- ASSAYED_SYSTEM: Torpedo electric organ membrane nAChRs (Tetronarce californica, UniProt P02710+P02714+P02718)
- Construct: from tissue; host or cells: Torpedo electric organ membranes
- Sequence (P02710 25-461): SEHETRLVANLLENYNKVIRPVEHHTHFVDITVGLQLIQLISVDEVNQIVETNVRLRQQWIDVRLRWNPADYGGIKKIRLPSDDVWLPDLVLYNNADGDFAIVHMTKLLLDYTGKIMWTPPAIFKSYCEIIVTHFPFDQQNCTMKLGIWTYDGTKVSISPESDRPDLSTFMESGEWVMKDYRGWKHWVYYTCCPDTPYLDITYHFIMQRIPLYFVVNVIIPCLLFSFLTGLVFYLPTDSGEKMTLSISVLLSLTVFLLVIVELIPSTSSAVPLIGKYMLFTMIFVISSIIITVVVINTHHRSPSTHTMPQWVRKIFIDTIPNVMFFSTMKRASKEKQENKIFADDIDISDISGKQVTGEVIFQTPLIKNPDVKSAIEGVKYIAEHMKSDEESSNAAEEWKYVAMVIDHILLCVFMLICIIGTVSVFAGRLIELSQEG
- Sequence (P02714 18-506): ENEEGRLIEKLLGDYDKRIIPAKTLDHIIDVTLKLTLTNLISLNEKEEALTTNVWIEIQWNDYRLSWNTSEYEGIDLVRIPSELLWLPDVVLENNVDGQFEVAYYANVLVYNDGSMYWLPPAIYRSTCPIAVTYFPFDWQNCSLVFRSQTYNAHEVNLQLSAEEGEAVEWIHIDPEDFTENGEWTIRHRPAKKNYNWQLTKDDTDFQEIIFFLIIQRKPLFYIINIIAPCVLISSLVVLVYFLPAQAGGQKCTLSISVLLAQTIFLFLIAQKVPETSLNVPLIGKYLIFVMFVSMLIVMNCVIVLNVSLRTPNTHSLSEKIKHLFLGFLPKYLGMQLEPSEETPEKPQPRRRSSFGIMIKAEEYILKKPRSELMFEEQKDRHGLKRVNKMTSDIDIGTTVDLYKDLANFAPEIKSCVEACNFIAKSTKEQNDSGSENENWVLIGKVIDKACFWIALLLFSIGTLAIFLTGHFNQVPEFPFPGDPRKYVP
- Sequence (P02712 25-493, further chain): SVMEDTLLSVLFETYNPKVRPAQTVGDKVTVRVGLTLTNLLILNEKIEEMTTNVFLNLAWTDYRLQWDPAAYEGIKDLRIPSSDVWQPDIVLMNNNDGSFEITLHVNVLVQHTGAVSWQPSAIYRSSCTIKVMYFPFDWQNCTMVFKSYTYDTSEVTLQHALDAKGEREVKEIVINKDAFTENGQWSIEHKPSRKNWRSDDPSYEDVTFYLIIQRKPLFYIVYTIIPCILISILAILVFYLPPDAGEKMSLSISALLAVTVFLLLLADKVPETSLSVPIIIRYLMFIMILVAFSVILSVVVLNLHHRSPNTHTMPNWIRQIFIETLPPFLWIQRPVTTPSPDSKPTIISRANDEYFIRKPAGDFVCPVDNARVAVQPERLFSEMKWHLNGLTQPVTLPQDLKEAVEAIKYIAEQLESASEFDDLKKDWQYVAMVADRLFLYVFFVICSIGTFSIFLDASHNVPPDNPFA
- Sequence (P02718 22-522): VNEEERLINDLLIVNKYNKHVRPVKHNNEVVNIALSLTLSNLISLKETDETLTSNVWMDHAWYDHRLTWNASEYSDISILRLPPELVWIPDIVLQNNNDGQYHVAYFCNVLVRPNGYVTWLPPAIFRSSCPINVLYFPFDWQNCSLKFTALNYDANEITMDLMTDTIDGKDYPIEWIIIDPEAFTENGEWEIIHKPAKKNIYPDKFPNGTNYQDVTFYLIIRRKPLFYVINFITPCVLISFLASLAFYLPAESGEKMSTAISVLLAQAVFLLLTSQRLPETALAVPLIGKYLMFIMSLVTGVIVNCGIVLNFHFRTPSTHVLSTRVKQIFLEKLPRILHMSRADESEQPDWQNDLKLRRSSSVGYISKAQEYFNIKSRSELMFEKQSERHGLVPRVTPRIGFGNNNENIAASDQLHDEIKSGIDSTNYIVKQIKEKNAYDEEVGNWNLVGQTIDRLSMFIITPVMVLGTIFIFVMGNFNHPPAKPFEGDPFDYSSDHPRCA
- ASSAY_REMARKS: biochemical
- Type: binding
Give the quantity in µM, number only.

{"COMPOUND": "Cl.c1cncc(C2=NCCCN2)c1 [PTHP]", "MEASURE": "IC50", "READOUT_NUMBER": 0.47}

Here is the next item to consider.
Given the compound c1ccc(-c2cccnc2)nc1 [2,3′-Bipyridyl, 2,3′-bipyridyl] , what is its reported IC50?
343

---

- ASSAYED_SYSTEM: rat α7 nAChR (Rattus norvegicus)
- Construct: from tissue; host or cells: rat brain membranes
- Sequence (Q05941 23-502): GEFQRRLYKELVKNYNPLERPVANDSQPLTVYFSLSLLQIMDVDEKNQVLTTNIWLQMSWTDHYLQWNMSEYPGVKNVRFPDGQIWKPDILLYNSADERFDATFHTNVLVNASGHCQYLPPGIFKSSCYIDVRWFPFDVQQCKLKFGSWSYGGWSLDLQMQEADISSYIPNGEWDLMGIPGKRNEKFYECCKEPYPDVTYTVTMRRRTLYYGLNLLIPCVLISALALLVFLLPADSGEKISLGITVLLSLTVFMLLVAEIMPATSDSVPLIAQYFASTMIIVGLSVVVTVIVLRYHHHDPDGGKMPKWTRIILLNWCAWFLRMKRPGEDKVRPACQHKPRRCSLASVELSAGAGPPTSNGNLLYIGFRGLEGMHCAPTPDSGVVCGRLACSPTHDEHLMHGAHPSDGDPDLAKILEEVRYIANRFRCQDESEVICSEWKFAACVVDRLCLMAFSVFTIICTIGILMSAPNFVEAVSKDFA
- ASSAY_REMARKS: biochemical
- Format: binding
- CONDITION: read-out: Ki Neuronal nAChR Rat α7
MEASURE: Ki (µM)
Give the quantity in µM, number only.

Given the molecule c1cncc(C2=NCCCC2)c1 [Anabaseine, anabaseine, reference compound] , what is its reported Ki?
1.87

---

- ASSAYED_SYSTEM: Torpedo electric organ membrane nAChRs (Tetronarce californica, UniProt P02710+P02714+P02718)
- Construct: from tissue; host or cells: Torpedo electric organ membranes
- ASSAY_REMARKS: biochemical
- Type: binding
- CONDITION: read-out: IC50 Neuromuscular nAChR Torpedo Electric Organ
MEASURE: IC50 (nM)
Give the quantity in nM, number only.

Given the compound c1cncc(C2=NCCCC2)c1 [Anabaseine, anabaseine, reference compound] , what is its reported IC50?
290

# credit: paper PMC6891768
